In this section we review reported EC50 values for a set of molecules.
# TGT: rat EP4 receptor (Rattus norvegicus, UniProt P43114)
# Sequence (P43114 whole entry): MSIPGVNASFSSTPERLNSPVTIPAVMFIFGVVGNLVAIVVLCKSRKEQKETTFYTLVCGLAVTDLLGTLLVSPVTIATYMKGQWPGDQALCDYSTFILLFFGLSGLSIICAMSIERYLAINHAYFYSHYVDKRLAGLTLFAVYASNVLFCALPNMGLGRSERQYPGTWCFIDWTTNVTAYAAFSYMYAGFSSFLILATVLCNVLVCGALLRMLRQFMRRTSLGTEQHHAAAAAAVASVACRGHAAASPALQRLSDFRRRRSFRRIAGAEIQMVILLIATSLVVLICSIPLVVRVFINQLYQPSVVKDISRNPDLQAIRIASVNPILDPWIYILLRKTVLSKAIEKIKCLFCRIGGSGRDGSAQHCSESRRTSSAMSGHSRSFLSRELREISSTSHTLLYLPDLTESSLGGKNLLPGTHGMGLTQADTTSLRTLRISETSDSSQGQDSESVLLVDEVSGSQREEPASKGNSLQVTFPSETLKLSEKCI
# MEASUREMENT NOTES: cAMP production, rat EP4 receptor expressed in HEK293T cells
# Format: cell-based
# MEASUREMENT CONTEXT: read-out: rat EP4 receptor cAMP levels EC50; mean ± SEM
MEASUREMENT NAME: EC50 (nM)

CCC#CC[C@H](C)[C@H](O)/C=C/[C@H]1CCC(=O)N1CCCCCCC(=O)O; 2.6
CCCCC[C@H](O)/C=C/[C@H]1CCC(=O)[C@@H]1C/C=C\CCCC(=O)O [11-deoxy-PGE2, reference compound]; 1.1
CCCCC[C@H](O)/C=C/[C@H]1CCC(=O)[C@@H]1CCCCCCC(=O)O [11-deoxy-PGE1, reference compound]; 1.3
CCCCCC(O)C=CC1CCC(=O)N1CCCCCCC(=O)O (stereo not drawn) [11-deoxy-8-aza-PGE1, reference compound]; 2.6
CCCCC[C@H](O)/C=C/[C@H]1CC(F)(F)C(=O)N1CCCCCCC(=O)O; 0.3
CCC#CC[C@H](C)[C@H](O)/C=C/[C@H]1CC(F)(F)C(=O)N1CCCCCCC(=O)O; 0.5

* * *

# TGT: rat EP2 receptor (Rattus norvegicus)
# Sequence (Q62928 whole entry): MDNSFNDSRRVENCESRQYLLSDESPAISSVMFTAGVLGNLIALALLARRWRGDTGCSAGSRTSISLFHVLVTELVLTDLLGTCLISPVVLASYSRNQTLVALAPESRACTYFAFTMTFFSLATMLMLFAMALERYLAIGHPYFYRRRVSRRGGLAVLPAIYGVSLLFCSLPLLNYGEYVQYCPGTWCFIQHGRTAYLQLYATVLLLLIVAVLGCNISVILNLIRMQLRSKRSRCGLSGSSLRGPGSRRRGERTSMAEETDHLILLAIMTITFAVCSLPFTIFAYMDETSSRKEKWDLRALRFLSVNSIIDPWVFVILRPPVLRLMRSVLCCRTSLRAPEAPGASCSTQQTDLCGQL
# MEASUREMENT NOTES: cAMP production, rat EP2 receptor expressed in HEK293T cells
# Type: cell-based
MEASUREMENT NAME: EC50 (µM)

CCCCC[C@H](O)/C=C/[C@H]1[C@H](O)CC(=O)[C@@H]1CCCCCCC(=O)O [PGE1, prostaglandin E1]; 0.0795

* * *

# TGT: UniProtKB P43114
# MEASUREMENT NOTES: CRE-regulated SEAP reporter
# Type: cell-based
# MEASUREMENT CONTEXT: read-out: rat EP4 receptor CREB activation EC50; CRE-SEAP reporter; mean ± SEM
Consider the following compounds and their measured EC50 readings.
MEASUREMENT NAME: EC50 (nM)

CCC#CC[C@H](C)[C@H](O)/C=C/[C@H]1CCC(=O)N1CCCCCCC(=O)O [KMN-80]; 0.17
CCCCC[C@H](O)/C=C/[C@H]1CCC(=O)[C@@H]1CCCCCCC(=O)O [11-deoxy-PGE1, reference compound]; 0.06
CCCCC[C@H](O)/C=C/[C@H]1CC(F)(F)C(=O)N1CCCCCCC(=O)O [KMN-165]; 0.03
CCC#CC[C@H](C)[C@H](O)/C=C/[C@H]1CC(F)(F)C(=O)N1CCCCCCC(=O)O [KMN-159]; 0.03
CCCCCC(O)C=CC1CCC(=O)N1CCCCCCC(=O)O (centres unmarked) [11-deoxy-8-aza-PGE1, reference compound]; 0.16

* * *

# TGT: rat EP4 receptor (Rattus norvegicus)
# MEASUREMENT NOTES: CRE-regulated SEAP reporter
# Assay type: cell-based
MEASUREMENT NAME: EC50 (nM)

CCCCC[C@H](O)/C=C/[C@H]1[C@H](O)CC(=O)[C@@H]1C/C=C\CCCC(=O)O [PGE2, prostaglandin E2, reference compound]; 0.03
